Entry source: patent US5476856A

Each entry below carries its reported pIC50.
system: histamine-induced contraction of guinea-pig ileum (AntiH1); assay: Antihistamine activity in guinea-pig ileum (Test 4, AntiH1 act.); format: cell-based, Dunkin-Hartley guinea pigs; conditions: Cavia porcellus; guinea-pig ileum; histamine 5×10^-7 M; 5 min preincubation; read-out: Antihistaminic activity in vitro, Test 4 AntiH1 act. ileum IC50
Bear in mind: pIC50 is minus log10 of a mol/L concentration; give just that figure.

Recorded pIC50, per entry:
CC(=O)N1CCC(=C2c3ccc(Cl)cc3CCc3cccnc32)CC1 [Compound 12, reference compound] | 7.00
Clc1ccc2c(c1)CCc1cccnc1C2=C1CCN(Cc2ccncc2)CC1 [Compound 11, reference compound] | 7.03

Proceeding to the next compound to report its pIC50.
Return pIC50 measured with histamine-induced contraction of guinea-pig ileum (AntiH1) given this compound: Clc1ccc2c(c1)CCc1cccnc1C2=C1CCN(Cc2cccnc2)CC1
6.80

---

system: platelet aggregation induced by PAF; assay: Inhibition of platelet aggregation induced by PAF (Test 1); format: cell-based, New Zealand albino rabbits; details: Oryctolagus cuniculus; rabbit platelet rich plasma; PAF (C18) 16 nM final; read-out: PAF antagonism in vitro, Test 1 Plat. aggreg. IC50
READOUT: pIC50
Bear in mind: pIC50 is minus log10 of a mol/L concentration; give just that figure.

CC(=O)N1CCC(=C2c3ccc(Cl)cc3CCc3cccnc32)CC1 [Compound 12, reference compound] | 6.08
O=C(c1cc[n+]([O-])cc1)N1CCC(=C2c3ccc(Cl)cc3CCc3cccnc32)CC1 [Compound 13, reference compound] | 6.66

Which pIC50 is reported for this compound? Cc1ccc(CN2CCC(=C3c4ccc(Cl)cc4CCc4cccnc43)CC2)cn1 [Compound 2]
5.05

Next compound: COc1ccc(CN2CCC(=C3c4ccc(Cl)cc4CCc4cccnc43)CC2)cn1 [Compound 9]
4.43

Next compound: Cc1ccncc1CN1CCC(=C2c3ccc(Cl)cc3CCc3cccnc32)CC1 [Compound 5]
4.82

Next compound: Clc1ccc2c(c1)CCc1cccnc1C2=C1CCN(Cc2ccncc2)CC1 [Compound 11, reference compound]
5.74

Next compound: Cc1ncccc1CN1CCC(=C2c3ccc(Cl)cc3CCc3cccnc32)CC1 [Compound 3]
4.89

---

Each entry below carries its reported IC50.
system: platelet aggregation induced by PAF; test: Inhibition of platelet aggregation induced by PAF (Test 1); format: cell-based, New Zealand albino rabbits; conditions: Oryctolagus cuniculus; rabbit platelet rich plasma; PAF (C18) 16 nM final; read-out: PAF antagonism in vitro, Test 1 Plat. aggreg. IC50
Where a name gives a salt, the structure may show the parent alone.

Clc1ccc2c(c1)CCc1cccnc1C2=C1CCN(Cc2cccnc2Cl)CC1 | > 100 µM
Clc1ccc2c(c1)CCc1cccnc1C2=C1CCN(Cc2cccnc2)CC1 | 4 µM
Clc1ccc2c(c1)CCc1cccnc1C2=C1CCN(Cc2cncc(Br)c2)CC1 [Compound 8, trihydrochloride] | 0.72 µM
Cc1cncc(CN2CCC(=C3c4ccc(Cl)cc4CCc4cccnc43)CC2)c1 | 3.2 µM

Which IC50 is reported for this molecule? Clc1ccc2c(c1)CCc1cccnc1C2=C1CCN(Cc2ccc(Cl)nc2)CC1
> 100 µM
